Values compiled from paper PMC10873254.

ASSAY DETAILS: in vivo
Design: species or system BALB/c nu/nu female mice
EXPERIMENTAL SETUP: female, BALB/c nu/nu, mouse, iv, 40 pmol, total radioactivity, Tumor-to-kidneys ratio
# tissue to tissue ratio at 4 h listing for each entry below

{"columns": ["COMPOUND", "tissue to tissue ratio at 4 h"],
 "data": [
  ["CCNC(=O)[C@H](CC(C)C)NC(=O)[C@H](Cc1c[nH]cn1)NC(=O)CN(C)C(=O)[C@@H](NC(=O)[C@H](C)NC(=O)[C@H](Cc1c[nH]c2ccccc12)NC(=O)[C@H](CCC(N)=O)NC(=O)[C@@H](Cc1ccccc1)NC(=O)COCC(=O)Nc1ccc(CNC(=O)CCC(C(=O)O)N2CCN(CC(=O)O)CCN(CC(=O)O)CCN(CC(=O)O)CC2)cc1)C(C)C (stereo partly drawn) [[^111In]In-AU-SAR-M1, metal not drawn]", 3.6],
  ["CCNC(=O)[C@H](CC(C)C)NC(=O)[C@H](Cc1c[nH]cn1)NC(=O)CN(C)C(=O)[C@@H](NC(=O)[C@H](C)NC(=O)[C@H](Cc1c[nH]c2ccccc12)NC(=O)[C@H](CCC(N)=O)NC(=O)[C@@H](Cc1ccccc1)NC(=O)COCC(=O)Nc1ccc(CNC(=O)[C@@H](CCCNC(=N)N)NC(=O)CCC(C(=O)O)N2CCN(CC(=O)O)CCN(CC(=O)O)CCN(CC(=O)O)CC2)cc1)C(C)C (stereo partly drawn) [[^111In]In-AU-SAR-M3, [^111In]In-[DOTAGA-DArg]AU-SAR-M1, metal not drawn]", 1.4]
]}

Note: attention shifts to another entry.
Noted for CCNC(=O)[C@H](CC(C)C)NC(=O)[C@H](Cc1c[nH]cn1)NC(=O)CN(C)C(=O)[C@@H](NC(=O)[C@H](C)NC(=O)[C@H](Cc1c[nH]c2ccccc12)NC(=O)[C@H](CCC(N)=O)NC(=O)[C@@H](Cc1ccccc1)NC(=O)COCC(=O)Nc1ccc(CNC(=O)[C@H](CCCNC(=N)N)NC(=O)CCC(C(=O)O)N2CCN(CC(=O)O)CCN(CC(=O)O)CCN(CC(=O)O)CC2)cc1)C(C)C (stereo partly drawn) [[^111In]In-AU-SAR-M2, [^111In]In-[DOTAGA-Arg]AU-SAR-M1, metal not drawn] : its tissue to tissue ratio at 4 h reads 3.8
